Give MIC90 for every item shown.
System: Trichoderma
Test: Antimicrobial activity against Trichoderma spp. by broth microdilution method
Assay type: functional
*1 amine or outer side, *2 acyl side, *3 side chain or, on linkers, in order; H or OH if unused. Where a SMILES comes first, the peptide text is derived from it. Bridges are numbered along the chain shown (N, C = ends). [ ]: non-standard residue; d: D form. The star is where a group is joined. pTerphenylCO(4''-OnC5H11) = CCCCCOc1ccc(-c2ccc(-c3ccc(C(=O)*)cc3)cc2)cc1; Orn(4R-OH,5R-OH) = O=C([C@H](C[C@@H](O)[C@@H](O)N[*:3])N[*:1])[*:2]; hTyr(3S-OH,4S-OH) = N[C@H](C(=O)O)[C@H](O)[C@@H](O)c1ccc(O)cc1; Pro(3S-OH,4S-Me) = C[C@H]1CN[C@H](C(=O)O)[C@H]1O; Hyp = O=C(O)[C@@H]1C[C@@H](O)CN1

Before answering, review these 2 worked examples.
compound	MIC90
C[C@@H]1[C@H](O)[C@@H](C)/C=C/C=C/C=C/C=C/C=C/C=C/C=C/[C@H](O[C@@H]2O[C@H](C)[C@@H](O)[C@H](N)[C@@H]2O)C[C@@H]2O[C@](O)(C[C@@H](O)C[C@@H](O)[C@H](O)CC[C@@H](O)C[C@@H](O)CC(=O)O[C@H]1C)C[C@H](O)[C@H]2C(=O)O [AMPHOTERICIN B]	> 16 µg/mL
CCCCCOc1ccc(-c2ccc(-c3ccc(C(=O)N[C@H]4C[C@@H](O)[C@@H](O)NC(=O)[C@@H]5[C@@H](O)[C@@H](C)CN5C(=O)[C@H]([C@@H](C)O)NC(=O)[C@H]([C@H](O)[C@@H](O)c5ccc(O)cc5)NC(=O)[C@@H]5C[C@@H](O)CN5C(=O)[C@H]([C@@H](C)O)NC4=O)cc3)cc2)cc1 [ANIDULAFUNGIN] ({pTerphenylCO(4''-OnC5H11)}-[Orn(4R-OH,5R-OH)]T[Hyp][hTyr(3S-OH,4S-OH)]T[Pro(3S-OH,4S-Me)]; lactam 1-C)	> 16 µg/mL

Kindly consider the entry below.
// query Which MIC90 value belongs to C[C@@H](c1ncncc1F)[C@](O)(Cn1cncn1)c1ccc(F)cc1F [VORICONAZOLE] ?
// result > 8 µg/mL

* * *

Test system: Coprinellus domesticus
Experiment: Antimicrobial activity against Hormographiella verticillata by broth microdilution method
Assay type: functional
observation type: MIC50 (µg/mL)
Answers are plain numbers, in µg/mL.

smiles string	unit name	measured
CC[C@@H]([C@H](C)O)n1ncn(-c2ccc(N3CCN(c4ccc(OC[C@@H]5CO[C@@](Cn6cncn6)(c6ccc(F)cc6F)C5)cc4)CC3)cc2)c1=O	µg/mL	4

Now for the compound whose MIC50 we want.
// query Name the reported MIC50 value associated with the compound "C[C@@H](c1ncncc1F)[C@](O)(Cn1cncn1)c1ccc(F)cc1F"
// result 4

* * *

Could you please report measured MIC50 for the items listed next?
System: Penicillium
Experiment: Antimicrobial activity against Penicillium spp. by broth microdilution method
Assay type: functional
*1 amine or outer side, *2 acyl side, *3 side chain or, on linkers, in order; H or OH if unused. Where a SMILES comes first, the peptide text is derived from it. Bridges are numbered along the chain shown (N, C = ends). [ ]: non-standard residue; d: D form. The star is where a group is joined. hTyr(3S-OH,4S-OH,3'-OSO3H) = N[C@H](C(=O)O)[C@H](O)[C@@H](O)c1ccc(O)c(OS(=O)(=O)O)c1; Orn(4R-OH,5R-OH) = O=C([C@H](C[C@@H](O)[C@@H](O)N[*:3])N[*:1])[*:2]; Pro(3S-OH,4S-Me) = C[C@H]1CN[C@H](C(=O)O)[C@H]1O; X1 = CCCCCOc1ccc(-c2cc(-c3ccc(C(=O)*)cc3)no2)cc1; Gln(3R-OH) = NC(=O)C[C@@H](O)[C@H](N)C(=O)O; Hyp = O=C(O)[C@@H]1C[C@@H](O)CN1

Please state MIC50 for every molecule in the list that follows.
1. CCCCCOc1ccc(-c2cc(-c3ccc(C(=O)N[C@H]4C[C@@H](O)[C@@H](O)NC(=O)[C@@H]5[C@@H](O)[C@@H](C)CN5C(=O)[C@H]([C@H](O)CC(N)=O)NC(=O)[C@H]([C@H](O)[C@@H](O)c5ccc(O)c(OS(=O)(=O)O)c5)NC(=O)[C@@H]5C[C@@H](O)CN5C(=O)[C@H]([C@@H](C)O)NC4=O)cc3)no2)cc1 [MICAFUNGIN] (X1-[Orn(4R-OH,5R-OH)]T[Hyp][hTyr(3S-OH,4S-OH,3'-OSO3H)][Gln(3R-OH)][Pro(3S-OH,4S-Me)]; lactam 1-C)
2. C[C@@H](c1ncncc1F)[C@](O)(Cn1cncn1)c1ccc(F)cc1F
3. C[C@@H]1[C@H](O)[C@@H](C)/C=C/C=C/C=C/C=C/C=C/C=C/C=C/[C@H](O[C@@H]2O[C@H](C)[C@@H](O)[C@H](N)[C@@H]2O)C[C@@H]2O[C@](O)(C[C@@H](O)C[C@@H](O)[C@H](O)CC[C@@H](O)C[C@@H](O)CC(=O)O[C@H]1C)C[C@H](O)[C@H]2C(=O)O
4. CC[C@H](C)C[C@H](C)CCCCCCCCC(=O)N[C@H]1C[C@@H](O)[C@@H](NCCN)NC(=O)[C@@H]2[C@@H](O)CCN2C(=O)[C@H]([C@H](O)CCN)NC(=O)[C@H]([C@H](O)[C@@H](O)c2ccc(O)cc2)NC(=O)[C@@H]2C[C@@H](O)CN2C(=O)[C@H]([C@@H](C)O)NC1=O
5. CCC(C)n1ncn(-c2ccc(N3CCN(c4ccc(OCC5COC(Cn6cncn6)(c6ccc(Cl)cc6Cl)O5)cc4)CC3)cc2)c1=O (stereo unspecified)
6. CC[C@@H]([C@H](C)O)n1ncn(-c2ccc(N3CCN(c4ccc(OC[C@@H]5CO[C@@](Cn6cncn6)(c6ccc(F)cc6F)C5)cc4)CC3)cc2)c1=O

// result
1: 0.03 µg/mL; 2: 2 µg/mL; 3: 0.5 µg/mL; 4: 0.25 µg/mL; 5: 0.5 µg/mL; 6: 0.25 µg/mL

* * *

System: Candida tropicalis
Assay: Antimicrobial activity against Candida tropicalis by broth microdilution method
Assay type: functional
I'd appreciate it if you could supply MIC90 values for the items below.
Give bare numbers, in µg/mL.

Some entries whose results are on file:
molecule	MIC90, µg/mL
Nc1nc(=O)[nH]cc1F	0.25
CC[C@H](C)C[C@H](C)CCCCCCCCC(=O)N[C@H]1C[C@@H](O)[C@@H](NCCN)NC(=O)[C@@H]2[C@@H](O)CCN2C(=O)[C@H]([C@H](O)CCN)NC(=O)[C@H]([C@H](O)[C@@H](O)c2ccc(O)cc2)NC(=O)[C@@H]2C[C@@H](O)CN2C(=O)[C@H]([C@@H](C)O)NC1=O	0.25

// query Given the entry CCC(C)n1ncn(-c2ccc(N3CCN(c4ccc(OCC5COC(Cn6cncn6)(c6ccc(Cl)cc6Cl)O5)cc4)CC3)cc2)c1=O (stereo not drawn) , report its measured MIC90.
// result 0.06

* * *

Tested on: Trichoderma
Assay: Antimicrobial activity against Trichoderma spp. by broth microdilution method
Assay type: functional
*1 amine or outer side, *2 acyl side, *3 side chain or, on linkers, in order; H or OH if unused. Where a SMILES comes first, the peptide text is derived from it. Bridges are numbered along the chain shown (N, C = ends). [ ]: non-standard residue; d: D form. The star is where a group is joined. hTyr(3S-OH,4S-OH,3'-OSO3H) = N[C@H](C(=O)O)[C@H](O)[C@@H](O)c1ccc(O)c(OS(=O)(=O)O)c1; Orn(4R-OH,5R-OH) = O=C([C@H](C[C@@H](O)[C@@H](O)N[*:3])N[*:1])[*:2]; Pro(3S-OH,4S-Me) = C[C@H]1CN[C@H](C(=O)O)[C@H]1O; X1 = CCCCCOc1ccc(-c2cc(-c3ccc(C(=O)*)cc3)no2)cc1; Gln(3R-OH) = NC(=O)C[C@@H](O)[C@H](N)C(=O)O; Hyp = O=C(O)[C@@H]1C[C@@H](O)CN1
I'd appreciate it if you could supply MIC90 values for the items below.

Example cases with answers are listed next.
molecule	MIC90
CC[C@H](C)C[C@H](C)CCCCCCCCC(=O)N[C@H]1C[C@@H](O)[C@@H](NCCN)NC(=O)[C@@H]2[C@@H](O)CCN2C(=O)[C@H]([C@H](O)CCN)NC(=O)[C@H]([C@H](O)[C@@H](O)c2ccc(O)cc2)NC(=O)[C@@H]2C[C@@H](O)CN2C(=O)[C@H]([C@@H](C)O)NC1=O [CASPOFUNGIN]	> 16 µg/mL
CCC(C)n1ncn(-c2ccc(N3CCN(c4ccc(OCC5COC(Cn6cncn6)(c6ccc(Cl)cc6Cl)O5)cc4)CC3)cc2)c1=O (centres undefined) [ITRACONAZOLE]	> 8 µg/mL
CC[C@@H]([C@H](C)O)n1ncn(-c2ccc(N3CCN(c4ccc(OC[C@@H]5CO[C@@](Cn6cncn6)(c6ccc(F)cc6F)C5)cc4)CC3)cc2)c1=O [POSACONAZOLE]	> 8 µg/mL

Note: attention shifts to another entry.
// query Please look up its MIC90: CCCCCOc1ccc(-c2cc(-c3ccc(C(=O)N[C@H]4C[C@@H](O)[C@@H](O)NC(=O)[C@@H]5[C@@H](O)[C@@H](C)CN5C(=O)[C@H]([C@H](O)CC(N)=O)NC(=O)[C@H]([C@H](O)[C@@H](O)c5ccc(O)c(OS(=O)(=O)O)c5)NC(=O)[C@@H]5C[C@@H](O)CN5C(=O)[C@H]([C@@H](C)O)NC4=O)cc3)no2)cc1 [MICAFUNGIN] (X1-[Orn(4R-OH,5R-OH)]T[Hyp][hTyr(3S-OH,4S-OH,3'-OSO3H)][Gln(3R-OH)][Pro(3S-OH,4S-Me)]; lactam 1-C)
// result > 16 µg/mL

These entries and their values trace back to ChEMBL document CHEMBL1649165.
